Give measured growth for each item. Keep answers brief.
- Tested on: SK-MEL-5 melanoma
- ASSAY_INFO: NCI-60 one-dose screen, 48 h (100 = growth as untreated, 0 = no growth, -100 = all killed)
- STUDY_CONDITIONS: 10 µM unless noted
The panel holds about 83,000 compounds, 20% with a hit somewhere; the sample as a whole holds those more often.
Answers are plain numbers, in %.

Would you please look over these solved cases?
{"COMPOUND": "Cc1nc2ncccc2nc1Nc1ccc(S(=O)(=O)Nc2ccccn2)cc1", "growth, %": 99}
{"COMPOUND": "c1ccc(-c2cn(-c3ccccc3)c(-c3ccccc3)n2)cc1", "growth, %": 108}
{"COMPOUND": "COC(=O)c1cc(=O)nc(N/N=C/c2ccco2)s1", "growth, %": 99.6}
{"COMPOUND": "Cn1cc(-c2cnc3ccc(NC(=O)Nc4ccc(F)c(Br)c4)cc3n2)cn1", "growth, %": -9.12}
{"COMPOUND": "C/C(=N/NC(=S)Nc1ccccc1)c1nc2ccc(Cl)cc2[nH]1", "growth, %": -97.3}

The following compounds each have a reported value; give each one's growth.
1. CC(C)(C)OC(=O)NCCc1ccc(N=C=S)cc1
2. O=C(Nc1ccncc1)C(=O)c1cn(S(=O)(=O)c2ccccc2F)c2ccccc12
3. Cc1ccc(-c2nc(C#N)c(S(=O)(=O)n3nc(-c4ccccc4)cc3N)o2)cc1
4. CN1CCN(Cc2ccc(NC(=O)c3cncc(C#Cc4cnc(N)c5ccncc45)c3)cc2C(F)(F)F)CC1

1: 86.1; 2: 13.5; 3: 99.8; 4: 11.9

The following compounds each have a reported value; give each one's growth.
1. COc1ccc2c(c1)[nH]c(=O)c1c3cc(C)c(C)cc3cn21
2. CCCCCCCCCCCCNC(=O)[C@H]1CSC(c2cc(Br)cs2)N1 (stereo partly drawn)
3. Cc1cc(C2=NNC(=O)Cc3cc4c(cc32)OCCO4)cc(C)c1N

[10.3, 53.4, 10.2]

---

- System: SK-MEL-28 melanoma
- ASSAY_INFO: NCI-60 one-dose screen, 48 h (100 = growth as untreated, 0 = no growth, -100 = all killed)
- STUDY_CONDITIONS: 10 µM unless noted
- Method: Growth inhibition of the SK-MEL-28 human tumor cell line is measured as a screen for anti-cancer activity. Cells are grown in 96 well plates and exposed to the test compound for 48 hours. Compounds are tested at a single concentration, which is 10^-5 M for most compounds. The reported endpoint is percent growth (GI% or GIPRCNT), where numbers from 0 - 100% represent growth inhibition, and numbers from -100% - 0 represent cell death. For example, a value of 40 represents 60% growth inhibition. […]
This is part of a sample that, as a whole, favours compounds with a hit. Of some 83,000 tested, about 20% had one in any assay.
MEASUREMENT_LABEL: growth (%)
Numbers only, in %.

Would you please look over these solved cases?
{"MOLECULE": "O=C(CSc1nc2ccccc2[nH]1)Nc1ccc(-c2nc3ccccc3s2)c(Cl)c1", "growth [%]": 0.271}
{"MOLECULE": "N[C@@H]1CCN(C(=O)c2cc3cc(Cl)c(F)c(F)c3[nH]2)C1", "growth [%]": 105}

The following molecules each have a reported value; give each one's growth.
1. O=C(NCCNc1nccc(-n2ccc3cccnc32)n1)c1ccc(C(F)(F)F)cc1
2. CCCCCc1cc[n+](CC(=O)c2ccc([N+](=O)[O-])cc2)cc1
3. CC1=C(C#N)C(=O)NC(C)C1 (stereo unspecified)
4. COc1ccc(S(=O)(=O)n2ccc(-c3ccc4c(c3)CCC(C)(C)O4)n2)cc1OC

105
106
101
91

---

- Tested on: ACHN renal
- ASSAY_INFO: NCI-60 one-dose screen, 48 h (100 = growth as untreated, 0 = no growth, -100 = all killed)
- STUDY_CONDITIONS: 10 µM unless noted
This is part of a sample that, as a whole, favours compounds with a hit. Of some 83,000 tested, about 20% had one in any assay. Active and inactive are the calls of the source. Rule for the calls: active = growth percent below 10; inactive = the rest.
MEASUREMENT_LABEL: growth

The following molecules each have a reported value; give each one's growth.
1. O=[N+]([O-])c1cccc(-c2nc3sccn3c2-c2ccnc(NCCCNS(=O)(=O)c3ccc(Cl)cc3)n2)c1
2. COc1ccc(S(=O)(=O)n2cc(C(=O)C(=O)Nc3ccncc3)c3ccccc32)cc1F
3. O=S(=O)(NCCNc1nccc(-c2c(-c3cccc(O)c3)nc3sccn23)n1)c1ccc(F)cc1
4. NC(=S)N/N=C1\CCCC(C(F)(F)F)C1 (centres undefined)
5. COc1ccc(Nc2ncccc2C(=O)NCc2cn(Cc3cccc(Oc4ccccc4)c3)nn2)cc1

["47.8% (inactive)", "66.7% (inactive)", "60.2% (inactive)", "91.8% (inactive)", "51.2% (inactive)"]

---

- Tested on: HT29 colon
- ASSAY_INFO: NCI-60 one-dose screen, 48 h
- STUDY_CONDITIONS: 10 µM unless noted
The panel holds about 83,000 compounds, 20% with a hit somewhere; the sample as a whole holds those more often. Calls of active or inactive are those of the source. The calls were made as follows: active = growth percent below 10; inactive = the rest.
Outcome field: choose from active, inactive

The following compounds have reported results that may help.
{"COMPOUND": "O=S1(=O)CCC(N(/N=C/c2ccco2)c2ccccc2)C1 (stereo unspecified)", "CLASS_LABEL": "inactive"}
{"COMPOUND": "Cc1cc(N/N=C/c2nc(-c3ccccc3)oc2C)c2cc(Br)ccc2n1", "CLASS_LABEL": "inactive"}
{"COMPOUND": "Cc1nn(-c2ccc(Cl)cc2)c2ncnc(N/N=C/c3cccc([N+](=O)[O-])c3)c12", "CLASS_LABEL": "inactive"}
{"COMPOUND": "CCCCCc1cc[n+](CC(=O)c2ccc([N+](=O)[O-])cc2)cc1", "CLASS_LABEL": "inactive"}
{"COMPOUND": "CC(C)(C)n1cc(-c2ccnc(NCCCNS(=O)(=O)c3ccc(F)cc3)c2)c(-c2cccc(O)c2)n1", "CLASS_LABEL": "inactive"}
{"COMPOUND": "Cc1ccc(-c2nc(C(Cl)Cl)n3nc(-c4ccccc4)cc3n2)cc1", "CLASS_LABEL": "active"}
{"COMPOUND": "Cc1ccc(C(=O)NCCCNc2nccc(-n3ccc4cccnc43)n2)cc1", "CLASS_LABEL": "inactive"}
{"COMPOUND": "COc1cc(-c2nn(-c3cccc(NC(=O)Nc4cccc(C(F)(F)F)c4)c3)cc2-c2ccncc2)ccc1Cl", "CLASS_LABEL": "active"}
{"COMPOUND": "CN1CCN(Cc2ccc(NC(=O)c3cncc(C#Cc4cnc(N)c5ccncc45)c3)cc2C(F)(F)F)CC1", "CLASS_LABEL": "active"}
{"COMPOUND": "O=C(Nc1cccc(-n2cc(-c3ccncc3)c(-c3ccc(Cl)c(O)c3)n2)c1)Nc1cc(C(F)(F)F)cc(C(F)(F)F)c1", "CLASS_LABEL": "active"}

Test call, this compound: CN(C)CCOC(=O)Nc1ccccc1Cl inactive

Test call, this compound: Cc1ccc(S(=O)(=O)n2cc(C(=O)C(=O)Nc3ccncc3)c3ccccc32)cc1 active

Test call, this compound: CCN(CC)c1ccc(C(=N)c2ccc(N(CC)CC)cc2)cc1 active

Test call, this compound: O=C(NNC(=S)Nc1ccccc1)c1cc2ccc1CCc1ccc(cc1)CC2 inactive

Test call, this compound: CCN(CC)CCCNc1nccc2ccc(Cl)cc12 inactive

---

Give measured growth for each item. Keep answers brief.
- Tested on: LOX IMVI melanoma
- ASSAY_INFO: NCI-60 one-dose screen, 48 h (100 = growth as untreated, 0 = no growth, -100 = all killed)
- STUDY_CONDITIONS: 10 µM unless noted
The panel holds about 83,000 compounds, 20% with a hit somewhere; the sample as a whole holds those more often.
Give bare numbers, in %.

Would you please look over these solved cases?
{"MOLECULE": "C=C1CCC2C(C)(CO)C(O)CCC2(C)C1C/C=C1/C(=O)OCC1O/C=C/c1ccccc1 (stereo not given)", "growth, %": 36.8}
{"MOLECULE": "COc1cc(-c2nc(N=Nc3c(O)[nH]c4ccc(Br)cc34)[nH]c(=O)c2C#N)cc(OC)c1OC", "growth, %": 98.2}
{"MOLECULE": "CCN(CC)c1ccc(/C=C2\\Oc3ccc(O)c(I)c3C2=O)cc1", "growth, %": 34.2}
{"MOLECULE": "Cc1ccc2[nH]c(=O)c3c(c2c1)Oc1ncn2nc(-c4ccco4)nc2c1C3c1ccc(Cl)cc1 (stereo not given)", "growth, %": 90.4}
{"MOLECULE": "Cc1nc2ncccc2nc1Nc1ccc(S(=O)(=O)Nc2ccccn2)cc1", "growth, %": 85.1}

The following molecules each have a reported value; give each one's growth.
1. CCCCCCCCN(CCCCCCCC)CCCCCCNc1cc(OC)cc2cccnc12
2. CC(NNC(C)c1ccccc1)c1ccccc1 (stereo not given)
3. COc1ccc(CCNC2=CC(=O)CCC2)cc1OC
4. CCCCOc1ccc(/C=C2/SC(N3CCCC3)=NC2=O)cc1
5. Fc1ccccc1-c1nc(-c2nc3cc(Cl)c(Cl)cc3[nH]2)c2ccccn12

1: 32.3; 2: 101; 3: 96.3; 4: 96.2; 5: 79.9
